Every entry's value here was drawn from ChEMBL document CHEMBL1135984.

The following molecules are listed with their measured IC50 values.
System: Plasmodium falciparum
Test: In vitro inhibitory concentration against chloroquine-resistant Plasmodium falciparum K1
Format: functional, organism-based
value-type: IC50 (nM)

{"molecule": "C[C@H]1[C@@H](OCc2cccc(CN3CCN(c4ccc([N+](=O)[O-])cc4)CC3)c2)O[C@@H]2OC3(C)CCC4[C@H](C)CC[C@@H]1[C@]42OO3 (single isomer, unassigned)", "readout-number": 4.3}
{"molecule": "C[C@H]1[C@@H](CCN2CCN(c3ccc(F)cc3)CC2)O[C@@H]2OC3(C)CCC4[C@H](C)CC[C@@H]1[C@]42OO3 (single isomer, unassigned)", "readout-number": 5.96}
{"molecule": "C[C@H]1[C@@H](OCc2ccc(CN3CCN(c4ccccc4)CC3)cc2)O[C@@H]2OC3(C)CCC4[C@H](C)CC[C@@H]1[C@]42OO3 (single isomer, unassigned)", "readout-number": 8.2}
{"molecule": "C[C@H]1[C@@H](CCN2CCCCC2)O[C@@H]2OC3(C)CCC4[C@H](C)CC[C@@H]1[C@]42OO3 (single isomer, unassigned)", "readout-number": 4.83}

----------
Species on record: Mus musculus
Assay: 90% effective dose against Plasmodium yoelii in mice (Mus musculus)
Assay type: functional
Each item that follows carries a reported ED90.

{"compound": "C[C@H]1[C@@H](CCN2CCN(c3ccccc3)CC2)O[C@@H]2OC3(C)CCC4[C@H](C)CC[C@@H]1[C@]42OO3 (single isomer, unassigned)", "ED90": "> 10 mg/kg"}
{"compound": "C[C@H]1[C@@H](CCN2CCN(c3ccc(F)cc3)CC2)O[C@@H]2OC3(C)CCC4[C@H](C)CC[C@@H]1[C@]42OO3 (single isomer, unassigned)", "ED90": "10 mg/kg"}
{"compound": "C[C@H]1[C@@H](CCN2CCN(Cc3ccccc3)CC2)O[C@@H]2OC3(C)CCC4[C@H](C)CC[C@@H]1[C@]42OO3 (single isomer, unassigned)", "ED90": "> 10 mg/kg"}
{"compound": "C[C@H]1[C@@H](CCN2CCN(c3ccc([N+](=O)[O-])cc3)CC2)O[C@@H]2OC3(C)CCC4[C@H](C)CC[C@@H]1[C@]42OO3 (single isomer, unassigned)", "ED90": "> 10 mg/kg"}
{"compound": "C[C@H]1[C@@H](CCN2CCN(c3cccc(C(F)(F)F)c3)CC2)O[C@@H]2OC3(C)CCC4[C@H](C)CC[C@@H]1[C@]42OO3 (single isomer, unassigned)", "ED90": "< 10 mg/kg"}
{"compound": "C[C@H]1[C@H](OC(=O)CCC(=O)[O-])O[C@@H]2O[C@@]3(C)CC[C@H]4[C@H](C)CC[C@@H]1[C@@]24OO3.[Na+] [SODIUM ARESUNATE]", "ED90": "100 mg/kg"}

----------
Test system: Plasmodium falciparum
Assay: In vitro inhibitory concentration against chloroquine-resistant Plasmodium falciparum K1
Format: functional, organism-based

{"compound": "C[C@H]1[C@@H](CCN2CCN(Cc3ccccc3)CC2)O[C@@H]2OC3(C)CCC4[C@H](C)CC[C@@H]1[C@]42OO3 (single isomer, unassigned)", "IC50 / nM": 4.22}
{"compound": "C[C@H]1[C@@H](OCc2cccc(CN3CCN(c4cccc(C(F)(F)F)c4)CC3)c2)O[C@@H]2OC3(C)CCC4[C@H](C)CC[C@@H]1[C@]42OO3 (single isomer, unassigned)", "IC50 / nM": 22.5}
{"compound": "C[C@H]1[C@@H](CCN2CCN(c3ccc(Cl)cc3)CC2)O[C@@H]2O[C@]3(C)CC[C@H]4[C@H](C)CC[C@@H]1[C@@]24OO3", "IC50 / nM": 8.16}
{"compound": "C[C@H]1[C@@H](OCc2cccc(CN3CCN(c4ccc(Cl)cc4)CC3)c2)O[C@@H]2OC3(C)CCC4[C@H](C)CC[C@@H]1[C@]42OO3 (single isomer, unassigned)", "IC50 / nM": 13.3}
{"compound": "C[C@@H]1CC[C@H]2[C@@H](C)C(=O)O[C@@H]3O[C@@]4(C)CC[C@@H]1[C@]32OO4", "IC50 / nM": 12.5}
{"compound": "C[C@H]1[C@@H](OCc2ccc(CN3CCN(Cc4ccccc4)CC3)cc2)O[C@@H]2O[C@]3(C)CC[C@H]4[C@H](C)CC[C@@H]1[C@@]24OO3", "IC50 / nM": 3.8}
